- Test system: OCI-AML2
- assay.notes: cell viability relative to vehicle control; higher = less cytotoxic;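 note: after 48 h exposure read by CellTiter-Glo luminescence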
- condition.label: 10 µM; SRSF2 genotype: P95H/wt
Counter-ions that a name gives are not always drawn.
Answer each item with its documented cell viability.
One number for each entry, in %.

1) CCN1C[C@]2(COC)CC[C@H](OC)[C@]34C1[C@H]([C@H](OC)[C@H]23)[C@@]1(OC(C)=O)C[C@H](OC)[C@@]2(O)C[C@@H]4[C@@H]1[C@H]2OC(=O)c1ccc(OC)cc1 [Crassicauline A]; 87.7
2) COc1cc([C@@H]2c3cc4c(cc3[C@@H](O)[C@H]3COC(=O)[C@H]23)OCO4)cc(OC)c1O [4'-Demethylepipodophyllotoxin]; 20.9
3) CN1[C@@H]2CC[C@H]1C[C@@H](OC(=O)C(CO)c1ccccc1)C2 (some centres not stated) [Atropine sulfate]; 94

I need cell viability for every entry listed below, if you could help.
1. C=C[C@@H]1C2=CCOC(=O)C2=CO[C@H]1O[C@@H]1O[C@H](CO)[C@@H](O)[C@H](O)[C@H]1O [Gentiopicroside]
2. Cc1cc(SCc2sc(-c3ccc(C(F)(F)F)c(F)c3)nc2C)ccc1OCC(=O)O
3. CCN1C[C@]2(COC)CC[C@H](OC)[C@]34C1[C@H](C[C@H]23)[C@@]1(O)C[C@H](OC)[C@H]2C[C@@H]4[C@@H]1[C@H]2O [Talatisamine]
4. CC(=O)O[C@@H]1[C@H]2[C@@H](OC(=O)Cc3ccccc3)[C@@H](C)C[C@]2(OC(C)=O)C(=O)/C(C)=C/[C@@H]2[C@H](CC[C@]13CO3)C2(C)C [Euphorbia factor L1]

Response:
1. 94
2. 95.9
3. 101
4. 95.9

* * *

- Test system: K562
- assay.notes: cell viability relative to vehicle control; higher = less cytotoxic
- condition.label: 10 µM; SRSF2 genotype: SRSF2 wt/wt
Answer each item with its documented cell viability.
One number for each entry, in %.

Below: 2 compounds and their reported cell viability.
1) CC[C@@H]1CN2CC[C@@]3(C(=O)Nc4ccccc43)[C@@H]2C[C@@H]1/C(=C\OC)C(=O)OC; 97.9
2) CC1=C[C@@H]2C(=O)[C@]3(C=C(C)[C@H](O)[C@@]3(O)[C@@H]1O)[C@H](C)C[C@@H]1[C@H]2C1(C)C; 65.1

Query: Return reported cell viability; argument: "CC1=C(O)C(=O)C=C2C1=CC=C1[C@@]2(C)CC[C@@]2(C)[C@@H]3C[C@](C)(C(=O)O)CC[C@]3(C)CC[C@]12C"
Response: 0.65

* * *

- Tested on: MARIMO
- assay.notes: cell viability relative to vehicle control; higher = less cytotoxic
- condition.label: 10 µM; SRSF2 genotype: SRSF2 P95H/wt
Counter-ions that a name gives are not always drawn.
Answer each item with its documented cell viability.
Give bare numbers, in %.

Below: 3 molecules and their reported cell viability.
1. CC(O)(CS(=O)(=O)c1ccc(F)cc1)C(=O)Nc1ccc(C#N)c(C(F)(F)F)c1 (centres undefined) [Bicalutamide (Casodex)]; 95.4
2. O=c1ccc2cc(O[C@@H]3O[C@H](CO)[C@@H](O)[C@H](O)[C@H]3O)c(O)cc2o1 [Aesculin (Esculin)]; 96.9
3. CCc1c(C(=O)C(N)=O)c2c(OCC(=O)O)cccc2n1Cc1ccccc1; 82.6

In the following, a different molecule is considered.
Query: Return reported cell viability; argument: CN1CC=C(c2ccccc2)CC1 [MPTP hydrochloride]
Response: 107

# credit: the supplement of paper PMC10981050
